Reference source: the supplement of paper PMC6522484

Tested on: SW480
assay text: cell viability (CellTiter-Glo) relative to plate median (fraction of plate median); higher = more viable cells
setup conditions: 10 µM; treatment time 24 h; reporter: 7TFP
measured property: cell viability

Cn1cc(C2=C(c3ccc(Cl)cc3Cl)C(=O)NC2=O)c2ccccc21 :: 0.993
Cc1cnc(Nc2ccc(OCCN3CCCC3)cc2)nc1Nc1cccc(S(=O)(=O)NC(C)(C)C)c1 :: 0.871
Cc1ccc(F)c(NC(=O)Nc2ccc(-c3cccc4[nH]nc(N)c34)cc2)c1 :: 0.883
CC[C@H](CO)Nc1nc(NCc2ccccc2)c2ncn(C(C)C)c2n1 [Roscovitine (Seliciclib, CYC202)] :: 0.833
CS(=O)(=O)CCNCc1ccc(-c2ccc3ncnc(Nc4ccc(OCc5cccc(F)c5)c(Cl)c4)c3c2)o1 [Lapatinib Ditosylate (Tykerb)] :: 0.913
COc1cc2nccc(Oc3ccc(NC(=O)Nc4cc(C)on4)c(Cl)c3)c2cc1OC :: 1.07
CCCCCCCCCCCCc1ccc(S(=O)(=O)Nc2nncs2)cc1 :: 0.91
N#Cc1c(O)c2c(-c3ccc(-c4ccccc4O)cc3)csc2[nH]c1=O :: 0.922
